# Test system: EKVX NSCLC
# Measurement Description: NCI tumour cell line growth inhibition, 48 h; in the data active = GI50 below about 0.43 µM; inactive = the rest
Outcome field: choose from YES = active, NO = inactive

Query block: Assay result, entry C[As](C)SC1OC(CO)C(O)C1O (centres undefined) — outcome?
Result block: NO

---

Listed here are compounds together with their documented TGI.
# Test system: OVCAR-8 ovarian
# Measurement Description: NCI tumour cell line growth inhibition, 48 h
API: value field is a number in µM; no unit string.

Compound: Cc1ccc(Cl)cc1Nc1nc(C(F)(F)F)ccc1C(=O)N1CCN(c2ccc(F)cc2)CC1
TGI (µM): 50.2
--
Compound: CC(=O)c1c2c(cc3c1CC1(Cc4ccccc4C1=O)C3)CCC2 (stereo not drawn)
TGI (µM): 89.1
--
Compound: COc1cc(C(=O)c2cc(C)c3[nH]c4ccc(Cl)cc4c3c2C)cc(OC)c1OC
TGI (µM): 10.7

API: the following record is the query input.
Query block: Look up TGI with OVCAR-8 ovarian for this compound: CCC[CH2][Ge]([CH2]CCC)([CH2]CCC)[O]C(=O)CC(=O)c1ccccc1
Result block: 18.3
